RECORDED METRIC: melting point

Solved cases below.
>>> measurement("CCOC(=O)c1cc(-c2ccccc2)n(-c2cccc(C)c2)c1C")
"103 to 104 °C"
>>> measurement("N#CC1=C(C2CCNCC2)Nc2n[nH]cc2C1c1cccc2nonc12 (stereo not given)")
"216 °C"
>>> measurement("COc1ccc(NC(=O)Cn2c3c(c4cc(Cl)c(Cl)cc42)CCN(C(=O)OC(C)(C)C)CC3)cc1")
"151 to 152 °C"
>>> measurement("O=C1Cc2cc3c(cc2C(c2ccccc2Cl)N1)OCO3 (stereo not given)")
"207 to 209 °C"

Proceed to the following item.
So, CCOc1c(CS(=O)(=O)C2=NOC(C)(CCl)C2)c(C(F)(F)F)nn1CC (stereo not given) ? Its melting point was 67 to 69 °C
